# system_name: Fibroblast growth factor receptor 2 (Homo sapiens) (UniProt P21802);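 note: reported figure is a mean percent inhibition of FGFR2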
# Sequence (P21802 22-821 limits assumed): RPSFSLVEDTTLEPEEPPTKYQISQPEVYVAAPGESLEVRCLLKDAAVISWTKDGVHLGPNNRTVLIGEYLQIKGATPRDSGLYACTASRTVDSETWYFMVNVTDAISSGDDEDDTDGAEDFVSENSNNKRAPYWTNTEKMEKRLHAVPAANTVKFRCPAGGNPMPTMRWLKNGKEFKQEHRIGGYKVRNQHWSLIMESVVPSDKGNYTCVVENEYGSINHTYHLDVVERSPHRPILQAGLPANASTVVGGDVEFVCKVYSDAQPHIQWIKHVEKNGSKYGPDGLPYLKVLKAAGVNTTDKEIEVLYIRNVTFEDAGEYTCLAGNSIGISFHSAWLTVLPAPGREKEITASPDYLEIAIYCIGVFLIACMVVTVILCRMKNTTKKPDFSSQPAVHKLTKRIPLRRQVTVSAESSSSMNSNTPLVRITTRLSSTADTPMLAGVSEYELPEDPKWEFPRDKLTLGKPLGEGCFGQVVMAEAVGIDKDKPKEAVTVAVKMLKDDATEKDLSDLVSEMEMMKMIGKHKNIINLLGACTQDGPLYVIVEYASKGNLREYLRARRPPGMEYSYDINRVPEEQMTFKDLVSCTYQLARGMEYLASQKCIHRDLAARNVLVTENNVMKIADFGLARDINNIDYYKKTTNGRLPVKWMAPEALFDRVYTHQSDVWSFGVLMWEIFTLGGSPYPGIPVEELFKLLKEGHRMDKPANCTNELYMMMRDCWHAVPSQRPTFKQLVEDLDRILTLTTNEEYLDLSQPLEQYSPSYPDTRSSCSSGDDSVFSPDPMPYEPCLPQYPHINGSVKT
# experimental_conditions: at 1 µM
measurement_label: inhibition (%)

| substance_smiles | measurement_label | numeric_result |
| --- | --- | --- |
| O=C1Nc2ccccc2/C1=C/Nc1ccc(-n2cncn2)cc1 | inhibition | 24.9 |
| Cc1nnc(-c2ccc(C)c(-c3ccc(C(=O)NCc4ccc(Cl)cc4)cc3)c2)o1 | inhibition | 11.1 |
| COc1cc(C)c(N(C)C(=O)CN(C)C)cc1Nc1nc(Nc2cccc(F)c2C(N)=O)c2cc[nH]c2n1 | inhibition | -2.01 |
| c1ccc(Oc2ccc(Nc3ncc(-c4ccccc4)o3)cc2)cc1 | inhibition | 3.49 |
| O=C(Nc1n[nH]c2cc(-c3cc(F)ccc3F)ccc12)C1CC1 | inhibition | 6.04 |
| Fc1ccc(-c2nc3n(c2-c2ccncc2)CCS3)cc1 | inhibition | 1.72 |
| COc1cccc(/C=N/Nc2ncnc3c2cnn3-c2cccc(OC)c2)c1 | inhibition | 6.12 |
| COc1cc(Nc2ncc3c(C)nc(-c4cccc(C(F)(F)F)c4)n3n2)cc(OC)c1OC | inhibition | 10.6 |
| NC(=O)Cc1ccccc1Oc1nccc(-c2c(-c3ccc(F)cc3)ncn2C2CCNCC2)n1 | inhibition | 5.26 |
| Fc1ccc(-c2ncn(C3CCNCC3)c2-c2ccnc(Oc3ccc4c(c3)OCO4)n2)cc1 | inhibition | 12 |
| NCc1ccc(-n2c(-c3nonc3N)nc3cnccc32)cc1 | inhibition | 9.9 |

---

# system_name: Rhodopsin kinase GRK7 (Homo sapiens);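 note: mean percent inhibition of GRK7, profiled as part of the GSK PKIS screen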
# experimental_conditions: at 1 µM
measurement_label: inhibition (%)

| substance_smiles | system_name | unit_label | numeric_result |
| --- | --- | --- | --- |
| N#Cc1ccc(Oc2nccc(-c3c(-c4ccc(F)cc4)ncn3C3CCNCC3)n2)cc1 | Rhodopsin kinase GRK7 (Homo sapiens) | % | 5.35 |
| CCS(=O)(=O)c1ccc(OC)c(Nc2ncc(-c3cccc(-c4ccccc4F)c3)o2)c1 | Rhodopsin kinase GRK7 (Homo sapiens) | % | -0.85 |
| O=C(NCC1CC1)c1ccc(-c2cccc(C(=O)NC3CC3)c2)cc1 | Rhodopsin kinase GRK7 (Homo sapiens) | % | -7.67 |
| O=C(Nc1n[nH]c2cc(-c3cc(F)ccc3F)ccc12)C1CC1 | Rhodopsin kinase GRK7 (Homo sapiens) | % | 6.2 |
| CCS(=O)(=O)c1ccc(OC)c(Nc2ncc(-c3ccccc3Cl)o2)c1 | Rhodopsin kinase GRK7 (Homo sapiens) | % | -6.79 |
| Fc1ccc(-c2ncn(C3CCNCC3)c2-c2ccnc(Oc3ccc(Oc4ccccc4)cc3)n2)cc1 | Rhodopsin kinase GRK7 (Homo sapiens) | % | 3.4 |
| COc1ccc(-c2ccc3c(NC(=O)C4CC4)n[nH]c3n2)cc1 | Rhodopsin kinase GRK7 (Homo sapiens) | % | 10.4 |
| CN1CCN(CCCNc2nc3ccc(Oc4ccc(NC(=O)Nc5cc(C(F)(F)F)ccc5F)cc4)cc3[nH]2)CC1 | Rhodopsin kinase GRK7 (Homo sapiens) | % | -3.95 |
| CNC(=O)c1cncc(/C=C/c2c(C)cccc2C)c1 | Rhodopsin kinase GRK7 (Homo sapiens) | % | -7.66 |
| C[C@@H](Oc1cc(-n2cnc3ccc(OCC4CCN(C)CC4)cc32)sc1C(N)=O)c1ccccc1Cl | Rhodopsin kinase GRK7 (Homo sapiens) | % | 9.71 |
